Target: p48 (Homo sapiens, UniProt P49642, D306N)
Assay: isothermal titration calorimetry
readout-label: Kd
Put your answer as a value accompanied by its unit after it.

Qu. Which Kd is listed for O=c1ccn([C@@H]2O[C@H](COP(=O)(O)OP(=O)(O)OP(=O)(O)O)[C@@H](O)[C@H]2O)c(=O)[nH]1 [UTP] ?
Ans. 48 µM

====

Give Kd for every item shown.
Target chain: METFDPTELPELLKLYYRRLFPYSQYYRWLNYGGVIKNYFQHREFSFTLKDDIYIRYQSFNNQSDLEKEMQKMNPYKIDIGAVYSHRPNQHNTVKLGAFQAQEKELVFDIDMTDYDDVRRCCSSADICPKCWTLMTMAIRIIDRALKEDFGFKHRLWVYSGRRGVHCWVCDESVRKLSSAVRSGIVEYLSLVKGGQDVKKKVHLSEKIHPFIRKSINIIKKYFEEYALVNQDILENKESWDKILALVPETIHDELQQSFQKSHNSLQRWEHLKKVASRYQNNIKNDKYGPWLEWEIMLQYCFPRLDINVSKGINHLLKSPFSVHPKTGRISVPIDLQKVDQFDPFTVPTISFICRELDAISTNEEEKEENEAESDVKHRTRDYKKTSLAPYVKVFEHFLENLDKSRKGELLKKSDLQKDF
Entry rule: numbers only, all in µM.

Qu. Which Kd is listed for O=c1ccn([C@@H]2O[C@H](COP(=O)(O)OP(=O)(O)OP(=O)(O)O)[C@@H](O)[C@H]2O)c(=O)[nH]1 ?
Ans. 11

Qu. Which Kd is listed for Nc1nc2c(ncn2[C@@H]2O[C@H](COP(=O)(O)OP(=O)(O)OP(=O)(O)O)[C@@H](O)[C@H]2O)c(=O)[nH]1 ?
Ans. 13

Qu. Which Kd is listed for Nc1ncnc2c1ncn2[C@@H]1O[C@H](COP(=O)(O)OP(=O)(O)OP(=O)(O)O)[C@@H](O)[C@H]1O ?
Ans. 13

Qu. Which Kd is listed for Nc1ccn([C@@H]2O[C@H](COP(=O)(O)OP(=O)(O)OP(=O)(O)O)[C@@H](O)[C@H]2O)c(=O)n1 ?
Ans. 15
